# measurementTarget: Nuclear receptor coactivator 2 (Homo sapiens)
# protocolDescription: SRC2 coactivator transcriptional activity inhibitors, confirmation, cell-based, luminescence, HEK293, triplicate (AID 652008);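 also: 0% = DMSO-treated cells and 100% = Gossypol at 36 µM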
# runParameters: HEK293 GAL4-SRC2 luciferase reporter, at 8.9 µM
Calls of active or inactive are those of the source.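 The calls were made as follows: active = mean inhibition above 46.5%, the solvent-only control mean plus 3 SD; inactive = the rest.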
// classify into true (active), false (inactive)

Query: Field: outcome | Entry: CCn1c(Oc2cccc(Br)c2)nc2c1c(=O)n(C)c(=O)n2C
Response: false

Query: Field: outcome | Entry: CC(C)(C)c1ccc(C(=O)Nc2ccc(NC(=O)C(=O)O)cc2)o1
Response: false

Query: Field: outcome | Entry: CCOc1ccc(-n2cc(C(=O)NCc3ccco3)c3cc(OC)c(OC)cc3c2=O)cc1
Response: false

Query: Field: outcome | Entry: CCn1c(Oc2ccccc2F)nc2c1c(=O)n(C)c(=O)n2C
Response: true

Query: Field: outcome | Entry: Cc1ccc2nc(C)cc(Nc3ccc4c(c3)OCCO4)c2c1
Response: false

Query: Field: outcome | Entry: O=C(Cc1ccc(Cl)cc1)c1c[nH]c(C(=O)NCc2cccnc2)c1
Response: true

Query: Field: outcome | Entry: CN(Cc1ccccc1)C(=O)c1ccc(NC(=O)C2CCN(C(=O)OC(C)(C)C)CC2)cc1
Response: true

Query: Field: outcome | Entry: CCN(CC)Cc1nc2c(c(=O)[nH]1)C(CC)(CC)Cc1ccccc1-2
Response: false

Query: Field: outcome | Entry: Nc1ncc([N+](=O)[O-])c(N2CCCCCC2)n1
Response: true

Query: Field: outcome | Entry: O=C(CSc1nc2nc(-c3cccs3)cc(C(F)(F)F)c2c(=O)[nH]1)C(F)(F)F
Response: false

###

# measurementTarget: Nuclear receptor coactivator 2 (Homo sapiens)
# protocolDescription: SRC2 coactivator transcriptional activity inhibitors, confirmation, cell-based, luminescence, HEK293, triplicate (AID 652008);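 also: 0% = DMSO-treated cells and 100% = Gossypol at 36 µM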
# runParameters: HEK293 GAL4-SRC2 luciferase reporter, at 8.9 µM, stronger effect = higher value
propertyName: inhibition (%)
All answers are understood in %, so give the number only.

Query: inhibition lookup needed for Cc1ccc(NC(=O)c2cc(C)n(-c3ccccc3)c2C)cc1 , thanks.
Response: 69.8

Query: inhibition lookup needed for CCCC(=O)Nc1ccc(C(=O)N/N=C/c2ccc([N+](=O)[O-])o2)cc1 , thanks.
Response: 53.8

Query: inhibition lookup needed for O=C(COc1ccc(Cl)cc1Cl)Nc1ccccn1 , thanks.
Response: 85.2

Query: inhibition lookup needed for Cc1ccc(-c2nnc(SCC(=O)Nc3ccccc3F)o2)cc1 , thanks.
Response: 60

Query: inhibition lookup needed for Cc1nc2scc(C)n2c(=O)c1S(=O)(=O)Nc1ccc(OC(F)(F)F)cc1 , thanks.
Response: 6.78

Query: inhibition lookup needed for CCCCSc1nc(C)cc(SCC(=O)N/N=C/c2cccc(OC)c2O)n1 , thanks.
Response: 22.5

Query: inhibition lookup needed for CCC(C)(C(=O)NC1CCCCC1)N(Cc1cccs1)C(=O)CC1NC(=O)NC1=O (stereo not drawn) , thanks.
Response: -11.8

Query: inhibition lookup needed for Cc1nn(-c2ccccc2)c(N2CCCC2)c1/C=N/NC(=O)c1cccc(S(=O)(=O)Nc2ccc(Cl)cc2)c1 , thanks.
Response: -16.7

Query: inhibition lookup needed for CCc1ccc(CNC(=O)c2cc3c(C)nc4ccccc4c3o2)cc1 , thanks.
Response: 10.3

Query: inhibition lookup needed for CC(C)(C)c1ccc(OCCC(=O)OCC(=O)NC2CC2)cc1 , thanks.
Response: 2.38

Query: inhibition lookup needed for CN1CCN(c2ccc(-c3ccc4ccccc4n3)cc2)CC1 , thanks.
Response: 79.3

Query: inhibition lookup needed for O=C(Nc1ccc2c(c1)OCCO2)NC1(C(F)(F)F)Oc2ccccc2O1 , thanks.
Response: 43.7

Query: inhibition lookup needed for O=C(NCc1cccnc1)/C(=C\c1ccc(-c2ccc(Br)cc2)o1)S(=O)(=O)c1ccccc1 , thanks.
Response: 68.7

Query: inhibition lookup needed for Nc1ccc(-c2cc3ccccc3c(=O)o2)cc1 , thanks.
Response: 79.1

Query: inhibition lookup needed for CS(=O)(=O)N(Cc1ccccc1Cl)c1ccc(C(=O)NCc2cccnc2)cc1 , thanks.
Response: 35.5

Query: inhibition lookup needed for CCC/C(C#Cc1ccsc1)=C1/c2ccccc2C(=O)N1c1ccccc1 , thanks.
Response: -18.8

Query: inhibition lookup needed for Nc1ccc(Oc2ccc3c(c2)C(=O)N(CC2CCCO2)C3=O)cc1 (stereo not drawn) , thanks.
Response: 52.8

Query: inhibition lookup needed for COc1cc(Nc2nc(-c3ccccc3)c3cc(C)ccc3n2)cc(OC)c1OC , thanks.
Response: 10.7

Query: inhibition lookup needed for O=C1N(Cc2cccc(Cl)c2)C[C@@H]2C[C@@H](c3cccc4cccnc34)N3CCC[C@@]123 , thanks.
Response: -23.5

Query: inhibition lookup needed for O=C(N/N=C/c1ccc([N+](=O)[O-])o1)c1cc2ccccc2o1 , thanks.
Response: 56.4

Query: inhibition lookup needed for O=C(/C=C/c1ccccc1)CC(O)(c1ccccc1)C(F)(F)C(F)F (stereo not drawn) , thanks.
Response: 19.9

Query: inhibition lookup needed for COCCNC(=O)c1c[nH]c2ccc(S(=O)(=O)N3CCc4ccccc43)cc2c1=O , thanks.
Response: 33.5

Query: inhibition lookup needed for COc1ccc(NC(=O)/C(Cl)=C(/Cl)S(=O)Cc2ccccc2)cn1 (stereo not drawn) , thanks.
Response: 100

Query: inhibition lookup needed for O=C(CN1C(=O)c2ccccc2S1(=O)=O)c1ccc(Cl)cc1Cl , thanks.
Response: 83.7

Query: inhibition lookup needed for CCCn1nc([N+](=O)[O-])c(C(C#N)c2nc3ccccc3s2)c(Cl)c1=O (stereo not drawn) , thanks.
Response: 20.3

Query: inhibition lookup needed for COc1ccc(-n2c(C)c(C(C)=O)c3cc(O)ccc32)cc1 , thanks.
Response: 54

Query: inhibition lookup needed for N#CC(=C1C=CC(=NO)C(Cl)=C1)c1ccccc1 , thanks.
Response: 20.3

Query: inhibition lookup needed for Cc1ccc(C)c(N2CCN(C(=O)CCS(=O)(=O)c3ccc4c(c3)NC(=O)CO4)CC2)c1 , thanks.
Response: 15.3

Query: inhibition lookup needed for O=C(NC1CCCCC1)C(c1cccnc1)N(C(=O)CCl)c1ccc(F)cc1 (stereo not drawn) , thanks.
Response: 64.8

Query: inhibition lookup needed for COc1ccc(NC(=O)NCc2ccccc2F)cc1OC , thanks.
Response: -17.2

Query: inhibition lookup needed for O=[N+]([O-])c1ccc(Oc2ccc(F)cc2Br)c2ccncc12 , thanks.
Response: 50.2

Query: inhibition lookup needed for COc1ccc(-c2nsc3c(N4CCCCC4C)ncnc23)cc1 (stereo not drawn) , thanks.
Response: 93.3

Query: inhibition lookup needed for CCCn1c(C)cc(C(=O)CN2C(=O)c3ccccc3S2(=O)=O)c1C , thanks.
Response: 80.5

Query: inhibition lookup needed for O=C(N/N=C/c1ccc([N+](=O)[O-])s1)c1ccccc1 , thanks.
Response: 24.6

Query: inhibition lookup needed for CCN1/C(=C/c2sc(-c3ccccc3C)c[n+]2C)Sc2ccccc21 , thanks.
Response: 34.1

Query: inhibition lookup needed for CN1/C(=C\C=C2/SC(=S)NC2=O)C(C)(C)c2ccccc21 , thanks.
Response: 15.6

Query: inhibition lookup needed for COc1ccc(S(=O)(=O)N2CCOCC2)cc1NC(=O)CCNC(=O)c1ccc([N+](=O)[O-])cc1 , thanks.
Response: 49.4

Query: inhibition lookup needed for CCN(CC)c1ccc(/C=C/c2cc(-c3ccccc3)c3ccccc3n2)cc1 , thanks.
Response: -13.1

Query: inhibition lookup needed for CCS(=O)(=O)Nc1ccc(C2=NN(C(=O)c3ccco3)C(c3cccs3)C2)cc1 (stereo not drawn) , thanks.
Response: -29.7

Query: inhibition lookup needed for COc1ccc2[nH]c(=O)c3c(c2c1)OC(C)(C)C=C3 , thanks.
Response: 51.3

Query: inhibition lookup needed for CC(C)(C)c1ccc(Oc2ccc(NC(=O)c3ccccc3C(=O)O)cn2)cc1 , thanks.
Response: 62.4

Query: inhibition lookup needed for O=[N+]([O-])c1ccc2ncnc(Nc3ccc4c(c3)OCCO4)c2c1 , thanks.
Response: 28.4

Query: inhibition lookup needed for O=[N+]([O-])c1ccc(S(=O)(=O)c2ccccc2)nc1 , thanks.
Response: 36

###

# measurementTarget: Nuclear receptor coactivator 1 (Homo sapiens) (UniProt Q15788)
# Sequence (Q15788 whole entry, looked up): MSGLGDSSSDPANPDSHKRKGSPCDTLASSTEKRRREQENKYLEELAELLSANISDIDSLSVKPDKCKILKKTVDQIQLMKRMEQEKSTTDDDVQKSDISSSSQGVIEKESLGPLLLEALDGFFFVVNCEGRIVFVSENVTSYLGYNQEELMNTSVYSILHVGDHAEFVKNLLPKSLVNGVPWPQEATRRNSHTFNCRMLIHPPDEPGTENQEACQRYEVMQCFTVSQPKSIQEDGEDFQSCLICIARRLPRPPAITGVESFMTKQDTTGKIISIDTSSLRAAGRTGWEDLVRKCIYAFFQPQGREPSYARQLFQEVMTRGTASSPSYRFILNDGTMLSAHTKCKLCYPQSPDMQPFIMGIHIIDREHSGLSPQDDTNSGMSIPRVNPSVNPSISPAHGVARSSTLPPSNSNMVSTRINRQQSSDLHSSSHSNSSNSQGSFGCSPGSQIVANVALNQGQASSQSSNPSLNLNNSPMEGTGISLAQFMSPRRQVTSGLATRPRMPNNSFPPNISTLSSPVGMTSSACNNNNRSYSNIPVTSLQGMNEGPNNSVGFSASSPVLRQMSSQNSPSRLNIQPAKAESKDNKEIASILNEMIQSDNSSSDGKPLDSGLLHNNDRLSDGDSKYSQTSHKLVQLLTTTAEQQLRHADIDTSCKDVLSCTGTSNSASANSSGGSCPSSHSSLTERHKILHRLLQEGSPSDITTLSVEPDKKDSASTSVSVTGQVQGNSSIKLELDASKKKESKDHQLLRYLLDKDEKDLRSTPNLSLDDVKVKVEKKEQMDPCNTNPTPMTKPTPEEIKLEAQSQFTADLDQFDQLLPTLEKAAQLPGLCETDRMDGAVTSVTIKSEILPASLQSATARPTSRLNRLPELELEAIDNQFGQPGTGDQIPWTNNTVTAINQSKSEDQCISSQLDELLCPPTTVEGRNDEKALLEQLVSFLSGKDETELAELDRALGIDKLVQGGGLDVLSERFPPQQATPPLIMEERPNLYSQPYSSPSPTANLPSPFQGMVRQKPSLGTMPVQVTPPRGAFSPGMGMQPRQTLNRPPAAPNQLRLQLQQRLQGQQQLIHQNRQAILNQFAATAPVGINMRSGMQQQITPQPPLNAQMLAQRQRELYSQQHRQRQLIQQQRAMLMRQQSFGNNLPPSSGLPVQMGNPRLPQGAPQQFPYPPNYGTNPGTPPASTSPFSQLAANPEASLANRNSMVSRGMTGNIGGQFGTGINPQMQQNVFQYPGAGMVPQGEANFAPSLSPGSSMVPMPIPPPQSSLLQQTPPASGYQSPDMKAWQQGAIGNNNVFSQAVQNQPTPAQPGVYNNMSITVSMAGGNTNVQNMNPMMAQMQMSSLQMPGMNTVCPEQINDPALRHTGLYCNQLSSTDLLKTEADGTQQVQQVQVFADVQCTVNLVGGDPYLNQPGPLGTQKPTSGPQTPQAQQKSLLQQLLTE
# protocolDescription: SRC1 coactivator transcriptional activity inhibitors, confirmation, cell-based, luminescence, quadruplicate (AID 588820);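 also: 0% = DMSO wells and 100% = gossypol 36 µM treated wells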
# runParameters: HEK293 GAL4-SRC1 luciferase reporter, at 3.6 µM
Calls of active or inactive are those of the source.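 How the source made its calls: active means mean inhibition above 46.68%, the untreated control wells mean plus 3 SD; inactive means the rest.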
// classify into 1 for active, -1 for inactive

Query: Field: outcome | Entry: COc1cc2c(cc1OC)C(C)N(C(=O)c1cc3ccccc3o1)CC2 (stereo not given)
Response: -1

Query: Field: outcome | Entry: COc1ccc(CC2C(=O)NC(C)C(=O)N(C)C3Cc4ccc(cc4)Oc4cc(ccc4O)CC(C(=O)NC(C)C(=O)NC(C)C(=O)N2C)N(C)C3=O)cc1 (stereo not given)
Response: 1

Query: Field: outcome | Entry: CCOC(=O)c1cccc(NS(=O)(=O)c2ccc(NC(C)=O)cc2)c1
Response: -1

Query: Field: outcome | Entry: CC(=O)N1c2ccc(S(=O)(=O)NCC3CCC(C(=O)Nc4cccc(C)n4)CC3)cc2CC1C (stereo not given)
Response: -1

Query: Field: outcome | Entry: COc1ccc(Cc2nnc(SCC(=O)Nc3ccc(C)c(Cl)c3)[nH]c2=O)cc1
Response: -1
